- Test system: CSNK1E
- ASSAY SETUP: concentration: 1 μM, replicates: in singlicate; n = 1;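 note: KINOMEscan kinase panel screen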
REPORTED ENDPOINT: %Inh (%)
# unit: % | format: bare number

{"COMPOUND": "Fc1cccc(COc2nnc(-c3ccc4c(c3)CCO4)o2)c1", "RESULT UNIT": "%", "%Inh": 0}
{"COMPOUND": "O=C(Nc1ccc2c(c1)OCO2)NC1CCN(c2ccnc(Nc3ccc(F)cc3)n2)C1 (stereo not drawn)", "RESULT UNIT": "%", "%Inh": 0}
{"COMPOUND": "COc1cc2nccc(Nc3ccc(NC(=O)c4ccc(C)cc4)c(O)c3)c2cc1OC.Cl", "RESULT UNIT": "%", "%Inh": 45}
{"COMPOUND": "Cc1cccc(-c2nc(-c3ccc(S(C)(=O)=O)cc3)sc2-c2ccnc(NCCc3ccccc3)c2)c1", "RESULT UNIT": "%", "%Inh": 8}
{"COMPOUND": "Cl.NC(=O)c1cccc(Nc2nccc(Nc3ccc(Oc4cccc(Cl)c4)c(Cl)c3)n2)c1", "RESULT UNIT": "%", "%Inh": 8}
{"COMPOUND": "CCn1c(-c2ccccn2)nc2cnccc21", "RESULT UNIT": "%", "%Inh": 4}
{"COMPOUND": "O=C(O)COc1ncnc2cc(-c3ccc4[nH]ncc4c3)sc12", "RESULT UNIT": "%", "%Inh": 0}
{"COMPOUND": "CC(C)(C)c1ccc(C(=O)Nc2cn3cc(Cl)ccc3n2)cc1", "RESULT UNIT": "%", "%Inh": 59}

Alright, here's another compound for you.
// lookup %Inh | system=CSNK1E | key= Cc1cc(NCC(c2ccccc2)c2ccccc2)nc(NCc2ccc(C(F)(F)F)cc2)n1
34

* * *

List of %Inh values.
- Tested on: MYLK
- ASSAY SETUP: concentration: 1 μM, replicates: in singlicate; n = 1
# unit: % | format: bare number

{"COMPOUND": "CCn1c(-c2cccnc2O)nc2cnccc21 [SB-736715]", "RESULT UNIT": "%", "%Inh": 0}
{"COMPOUND": "Cc1ccc(-c2cc(-c3c[nH]nc3-c3ccccn3)ccn2)cc1 [GW684088]", "RESULT UNIT": "%", "%Inh": 18}
{"COMPOUND": "C[C@@H]1CCCCN1c1cc(-c2ccc3c(N)n[nH]c3c2)nc(N)n1 [GSK2258759]", "RESULT UNIT": "%", "%Inh": 5}
{"COMPOUND": "Fc1cccc(COc2nnc(-c3ccc4c(c3)CCO4)o2)c1", "RESULT UNIT": "%", "%Inh": 0}
{"COMPOUND": "CS(=O)(=O)c1ccc(-c2nc3n(c2-c2ccncc2)CCC3)cc1 [SKF-105942]", "RESULT UNIT": "%", "%Inh": 17}

Look up %Inh: Cc1csc(-c2nc(Nc3ccncc3)c3ccccc3n2)n1 [GW869640]
26

Look up %Inh: COc1ccc(Nc2nccc(NCCNC(=O)Nc3ccccc3F)n2)cc1 [GSK1379901]
15

Look up %Inh: CCCc1ccc(S(=O)(=O)NC2CCN(c3ccnc(Nc4ccc(F)cc4)n3)C2)cc1 (stereo not drawn) [GSK1379715]
0

Look up %Inh: Cc1c(O)cccc1Nc1ccnc2ccc(C(F)(F)F)cc12.Cl [GW466413]
0
